Hello, the source for this data is PubChem BioAssay AID1259348, in case you need it.

- target-system: Insulin-degrading enzyme (Homo sapiens)
- assay-info: inhibitors of IDE decapeptide proteolysis, dose response, counter-screen for IDE exo-site inhibitor project, biochemical, kinetic mode (AID 1259348)
- assay-conditions: purified human IDE, fluorogenic decapeptide proteolysis
Consider the following compounds; for each one, report its IC50.

>  <test-smiles>
O=C(NC1CCCC1)N1CC(=O)N2[C@H](CO)[C@@H](c3ccc(-c4cccnc4)cc3)[C@@H]2C1

>  <result>
14 µM

$$$$
>  <test-smiles>
OC[C@H]1[C@@H](c2ccc(C#Cc3ccccc3F)cc2)[C@@H]2CN(Cc3cncnc3)CCCCN12

>  <result>
5.2 µM

$$$$
>  <test-smiles>
Cc1ccccc1-c1ccc([C@H]2[C@H](CO)N3C(=O)CN(C(=O)c4ccncc4)C[C@@H]23)cc1

>  <result>
4.5 µM

$$$$

Each of the following entries comes with a recorded value; kindly state IC50 for each.
1. CCC(=O)N1[C@H](CO)[C@H](c2ccc(-c3ccccc3OC)cc2)[C@@H]1CNC(C)=O
2. Cc1ccccc1-c1ccc([C@H]2[C@H](CO)N3C(=O)CN(S(C)(=O)=O)C[C@@H]23)cc1
3. Cc1ccccc1-c1ccc([C@@H]2[C@@H](CO)N3CCCCN(C(=O)NC4CCCC4)C[C@H]23)cc1
4. Cc1cccc(-c2ccc([C@H]3[C@@H](CO)N4CCCCN(Cc5cccnc5)C[C@H]34)cc2)c1
5. COc1ccccc1-c1ccc([C@@H]2[C@@H](C#N)N(C(=O)c3cccnc3)[C@@H]2CO)cc1

Outgoing:
["5.8 µM", "17.5 µM", "3.6 µM", "10.7 µM", "1.2 µM"]

----------
- target-system: Insulin-degrading enzyme (Homo sapiens)
- assay-info: inhibitors of IDE decapeptide proteolysis, dose response, counter-screen for IDE exo-site inhibitor project, biochemical, kinetic mode (AID 1259348)
- assay-conditions: purified human IDE, fluorogenic decapeptide proteolysis
pIC50: −log10 of the molar value.
Please use Condition met whenever pIC50 is not below 6, and Condition not met whenever it is.

Solved cases below.
>  <test-smiles>
Cc1ccccc1-c1ccc([C@H]2[C@@H](CO)N3CCCCN(C(=O)NC4CCCC4)C[C@@H]23)cc1

>  <cat>
Condition met

$$$$
>  <test-smiles>
Cc1ccccc1-c1ccc([C@H]2[C@H](CO)N3C(=O)CN(C(=O)c4ccc(F)cc4)C[C@@H]23)cc1

>  <cat>
Condition not met

$$$$
>  <test-smiles>
Cc1cccc(-c2ccc([C@@H]3[C@@H](CO)N4CCCCN(C(=O)NC(C)C)C[C@@H]34)cc2)c1

>  <cat>
Condition not met

$$$$

Incoming: Hi team, for `Cc1ccccc1-c1ccc([C@H]2[C@@H](CO)N3CCCCN(S(=O)(=O)c4cn(C)cn4)C[C@H]23)cc1` , is the recorded pIC50 at or above 6?
Outgoing: Condition not met

----------
- target-system: Insulin-degrading enzyme (Homo sapiens)
- assay-info: inhibitors of IDE decapeptide proteolysis, dose response, counter-screen for IDE exo-site inhibitor project, biochemical, kinetic mode (AID 1259348);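 on z-score: purified IDE bound to fluorescein-labelled 6b probe FL-6b at the exo-site; probe displacement lowers polarization so hits show a drop in FP signal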
- assay-conditions: purified human IDE, fluorogenic decapeptide proteolysis, measured here: primary FP probe displacement screen, stronger effect = lower value
Consider the following molecules; for each one, report its z-score.
Numbers only.

Examples with their reported z-score follow.
>  <test-smiles>
COc1ccccc1C#Cc1ccc([C@H]2[C@H](CO)N3CCCCN(C(=O)C4CCC4)C[C@@H]23)cc1

>  <z-score>
-12.3

$$$$
>  <test-smiles>
COc1ccccc1NC(=O)N1CCCCN2[C@H](CO)[C@@H](c3ccc(-c4cccc(C)c4)cc3)[C@@H]2C1

>  <z-score>
-2.84

$$$$

Each of the following entries comes with a recorded value; kindly state z-score for each.
1. Cc1ccccc1-c1ccc([C@H]2[C@@H](CO)N3C(=O)CN(C(=O)c4cccnc4)C[C@H]23)cc1
2. Cc1cccc(-c2ccc([C@@H]3[C@H]4CN(C(=O)c5cccnc5)CCCCN4[C@H]3CO)cc2)c1
3. O=C(C1CCOCC1)N1CC(=O)N2[C@H](CO)[C@H](c3ccc(C#Cc4cccc(F)c4)cc3)[C@H]2C1
4. Cc1ccccc1-c1ccc([C@@H]2[C@H](CO)N3CCCCN(C(=O)NC4CCCC4)C[C@@H]23)cc1
5. CCCNC(=O)N1CC(=O)N2[C@H](CO)[C@@H](c3ccc(-c4cccc(C)c4)cc3)[C@@H]2C1

Outgoing:
1. -17.2
2. -15.2
3. -19.3
4. -19
5. -22.4

Incoming: Bench note: what z-score did `COc1ccccc1-c1ccc([C@H]2[C@H](C#N)N[C@@H]2CO)cc1` show?
Outgoing: -12

----------
- target-system: Insulin-degrading enzyme (Homo sapiens)
- assay-info: inhibitors of IDE decapeptide proteolysis, dose response, counter-screen for IDE exo-site inhibitor project, biochemical, kinetic mode (AID 1259348);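 on z-score: purified IDE bound to fluorescein-labelled 6b probe FL-6b at the exo-site; probe displacement lowers polarization so hits show a drop in FP signal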
- assay-conditions: purified human IDE, fluorogenic decapeptide proteolysis, measured here: primary FP probe displacement screen, stronger effect = lower value
Consider the following compounds; for each one, report its z-score.

Examples with their reported z-score follow.
>  <compound>
Cc1ccccc1-c1ccc([C@H]2[C@@H](CO)N3CCCCN(C(=O)c4cccnc4)C[C@H]23)cc1

>  <target-system>
Insulin-degrading enzyme (Homo sapiens)

>  <z-score>
-16.5

$$$$
>  <compound>
CO[C@@H]1CN(C)C(=O)c2cc(NC(=O)c3ccc(Oc4ccccc4)cc3)ccc2OC[C@@H](C)NC[C@@H]1C

>  <target-system>
Insulin-degrading enzyme (Homo sapiens)

>  <z-score>
-11.5

$$$$
>  <compound>
Cc1cccc(-c2ccc([C@H]3[C@H](CO)N4C(=O)CN(C(=O)NC5CCCCC5)C[C@@H]34)cc2)c1

>  <target-system>
Insulin-degrading enzyme (Homo sapiens)

>  <z-score>
-16.3

$$$$

Each of the following entries comes with a recorded value; kindly state z-score for each.
1. Cc1ccccc1-c1ccc([C@@H]2[C@@H](CO)N3CCCCN(S(=O)(=O)c4ccc(F)cc4)C[C@@H]23)cc1
2. Cc1ccccc1-c1ccc([C@H]2[C@H](CO)N3CCCCN(CC4CC4)C[C@@H]23)cc1
3. OC[C@H]1[C@@H](c2ccc(C#Cc3ccccc3F)cc2)[C@@H]2CN(Cc3cncnc3)CCCCN12
4. Cc1ccccc1-c1ccc(C2[C@@H]3CN(Cc4cncnc4)C[C@H]2N3)cc1 (some centres not stated)
5. Cc1ccccc1-c1ccc([C@H]2[C@@H](CO)N3CCCCN(S(=O)(=O)c4cn(C)cn4)C[C@@H]23)cc1
6. Cc1cccc(-c2ccc([C@@H]3[C@@H](CO)N4CCCCN(S(=O)(=O)c5cccc(C)c5)C[C@@H]34)cc2)c1

Outgoing:
1: -17.5; 2: -2.04; 3: -15.1; 4: -2.59; 5: -3.44; 6: -9.77

Each of the following entries comes with a recorded value; kindly state z-score for each.
1. COc1cccc(C#Cc2ccc([C@@H]3[C@H](CO)N4C(=O)CN(C(=O)Cc5cccnc5)C[C@@H]34)cc2)c1
2. COc1cccc(C#Cc2ccc([C@@H]3[C@H](CO)N4C(=O)CN(C(C)=O)C[C@@H]34)cc2)c1
3. Cc1ccccc1-c1ccc(C2[C@@H]3CN(C(=O)C4CCCCC4)C[C@H]2N3)cc1 (some centres not stated)
4. Cc1ccccc1-c1ccc([C@@H]2[C@@H](CO)N3CCCCN(C(=O)c4cccnc4)C[C@@H]23)cc1
5. COc1ccccc1-c1ccc([C@H]2[C@@H](CO)N[C@@H]2CNC(=O)C2CCCC2)cc1
6. CN1C(=O)c2cc(NC(=O)Nc3ccccc3Cl)ccc2OC[C@H]2O[C@H](CC(=O)NCCCN3CCOCC3)CC[C@@H]21
7. Cc1ccccc1-c1ccc([C@H]2[C@@H](CO)N3CCCCN(C(=O)Nc4ccc(F)cc4)C[C@@H]23)cc1
8. Cc1ccccc1-c1ccc([C@H]2[C@@H](CO)N3CCCCN(S(=O)(=O)Cc4ccccc4)C[C@@H]23)cc1

Outgoing:
1: -4.12; 2: -15.3; 3: -13.9; 4: -7.98; 5: -10.9; 6: -14.2; 7: -1.63; 8: -1.65

----------
- target-system: Insulin-degrading enzyme (Homo sapiens) (UniProt P14735)
- Sequence (P14735 42-1019 limits assumed): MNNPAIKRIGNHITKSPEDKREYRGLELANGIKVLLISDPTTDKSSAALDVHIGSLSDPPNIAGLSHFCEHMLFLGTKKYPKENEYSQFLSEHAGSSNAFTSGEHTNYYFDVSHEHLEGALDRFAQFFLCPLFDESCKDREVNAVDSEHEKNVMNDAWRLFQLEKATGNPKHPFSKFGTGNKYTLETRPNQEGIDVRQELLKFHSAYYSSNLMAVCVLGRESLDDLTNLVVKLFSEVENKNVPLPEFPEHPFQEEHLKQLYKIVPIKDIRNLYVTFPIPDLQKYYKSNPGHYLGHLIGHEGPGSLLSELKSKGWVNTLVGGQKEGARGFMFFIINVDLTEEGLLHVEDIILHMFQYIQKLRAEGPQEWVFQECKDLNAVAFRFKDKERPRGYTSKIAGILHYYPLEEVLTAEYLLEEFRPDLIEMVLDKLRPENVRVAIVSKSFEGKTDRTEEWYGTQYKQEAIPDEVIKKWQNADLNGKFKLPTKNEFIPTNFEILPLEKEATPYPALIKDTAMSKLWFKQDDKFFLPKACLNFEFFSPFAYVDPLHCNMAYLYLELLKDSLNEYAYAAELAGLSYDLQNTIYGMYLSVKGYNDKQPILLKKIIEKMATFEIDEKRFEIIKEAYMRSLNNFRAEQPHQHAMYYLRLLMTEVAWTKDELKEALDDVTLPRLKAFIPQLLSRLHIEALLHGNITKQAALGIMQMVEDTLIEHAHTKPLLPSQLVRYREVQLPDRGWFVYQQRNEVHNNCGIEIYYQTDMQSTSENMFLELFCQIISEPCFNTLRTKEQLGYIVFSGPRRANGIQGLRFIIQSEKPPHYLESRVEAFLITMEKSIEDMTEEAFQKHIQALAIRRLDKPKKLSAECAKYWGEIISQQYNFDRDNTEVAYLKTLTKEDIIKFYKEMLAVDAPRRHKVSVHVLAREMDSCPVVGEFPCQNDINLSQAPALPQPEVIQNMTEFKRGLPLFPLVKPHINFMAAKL
- assay-info: inhibitors of IDE decapeptide proteolysis, dose response, counter-screen for IDE exo-site inhibitor project, biochemical, kinetic mode (AID 1259348)
- assay-conditions: purified human IDE, fluorogenic decapeptide proteolysis
Active and inactive are the calls of the source.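 The calls were made as follows: active = any compound with an IC50 of 100 nM or lower; inactive = the rest.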
Select the matching outcome among yes (1) for active, no (0) for inactive

Solved cases below.
>  <molecule>
Cc1ccccc1-c1ccc([C@H]2[C@@H](CO)N3CCCCN(C(=O)Cc4ccccn4)C[C@@H]23)cc1

>  <cat>
yes (1)

$$$$
>  <molecule>
Cc1ccccc1-c1ccc([C@H]2[C@@H](CO)N3CCCCN(S(=O)(=O)c4cn(C)cn4)C[C@@H]23)cc1

>  <cat>
no (0)

$$$$
>  <molecule>
Cc1cccc(-c2ccc([C@@H]3[C@@H](CO)N4CCCCN(CCC(F)(F)F)C[C@@H]34)cc2)c1

>  <cat>
yes (1)

$$$$

Incoming: Just curious, what result did `CN1C(=O)c2cc(NC(=O)Nc3ccccc3Cl)ccc2OC[C@H]2O[C@H](CC(=O)NCCCN3CCOCC3)CC[C@@H]21` get here?
Outgoing: yes (1)

Incoming: Just curious, what result did `Cc1ccccc1-c1ccc([C@@H]2[C@@H](CO)N3CCCCN(C(=O)c4cccnc4)C[C@@H]23)cc1` get here?
Outgoing: yes (1)

Incoming: Just curious, what result did `Cc1cccc(-c2ccc([C@@H]3[C@@H](CO)N4C(=O)CN(C(=O)NC5CCCCC5)C[C@@H]34)cc2)c1` get here?
Outgoing: yes (1)
